meta.source: patent US10597383B2

Molecular target: human TRPA1 (Homo sapiens (Human), UniProt O75762)
Sequence (O75762 whole entry): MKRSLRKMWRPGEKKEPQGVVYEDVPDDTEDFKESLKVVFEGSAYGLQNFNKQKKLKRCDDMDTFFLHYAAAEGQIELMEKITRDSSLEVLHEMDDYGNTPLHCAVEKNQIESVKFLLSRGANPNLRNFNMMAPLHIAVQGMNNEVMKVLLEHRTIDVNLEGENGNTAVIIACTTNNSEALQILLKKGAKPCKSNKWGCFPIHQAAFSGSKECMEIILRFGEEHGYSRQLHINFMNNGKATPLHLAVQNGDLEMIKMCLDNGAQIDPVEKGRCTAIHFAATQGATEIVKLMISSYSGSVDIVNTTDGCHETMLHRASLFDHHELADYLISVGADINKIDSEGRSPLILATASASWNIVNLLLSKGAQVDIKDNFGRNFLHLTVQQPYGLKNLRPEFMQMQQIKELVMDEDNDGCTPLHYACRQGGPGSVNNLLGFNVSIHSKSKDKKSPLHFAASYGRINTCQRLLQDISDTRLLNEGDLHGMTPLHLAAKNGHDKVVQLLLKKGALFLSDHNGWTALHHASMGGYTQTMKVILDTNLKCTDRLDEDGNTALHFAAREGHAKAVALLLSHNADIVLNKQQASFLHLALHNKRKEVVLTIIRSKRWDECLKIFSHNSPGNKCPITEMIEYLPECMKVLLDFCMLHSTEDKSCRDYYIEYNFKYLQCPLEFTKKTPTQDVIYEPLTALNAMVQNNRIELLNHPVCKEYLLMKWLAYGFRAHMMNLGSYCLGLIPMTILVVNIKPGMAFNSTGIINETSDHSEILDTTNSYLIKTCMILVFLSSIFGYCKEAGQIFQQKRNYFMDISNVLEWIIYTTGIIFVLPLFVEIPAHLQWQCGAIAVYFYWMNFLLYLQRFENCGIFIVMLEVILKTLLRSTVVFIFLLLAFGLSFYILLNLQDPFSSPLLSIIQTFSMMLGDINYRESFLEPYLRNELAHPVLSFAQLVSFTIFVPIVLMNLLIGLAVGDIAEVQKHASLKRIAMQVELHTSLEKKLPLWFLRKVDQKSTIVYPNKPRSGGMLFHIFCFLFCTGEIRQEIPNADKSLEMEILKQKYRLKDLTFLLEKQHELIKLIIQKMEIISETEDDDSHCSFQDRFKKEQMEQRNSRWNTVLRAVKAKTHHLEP
Assay: hTRPA1 CHO Ca2+ AUC EVO (IC50); FLIPR Tetra block of cinnamaldehyde induced calcium influx
Assay type: cell-based
Settings: Table 1; CHO cells expressing TRPA1; 75 uM cinnamaldehyde (~EC80) as agonist
pIC50: −log10 of the molar value.
observedProperty: pIC50

smilesRecord: O=C(NCc1cc(-c2cnc(C(F)(F)F)nc2)c(F)cn1)[C@@H]1C2CC(C2)N1S(=O)(=O)c1cc2cc(F)ccc2o1
systemName: human TRPA1 (Homo sapiens (Human), UniProt O75762)
valueReported: 8.97
//
smilesRecord: O=C(NCc1cc(-c2cnc(C(F)(F)F)nc2)cc(C2CC2)n1)[C@@H]1C2CC(C2)N1S(=O)(=O)c1ccc(F)cc1
systemName: human TRPA1 (Homo sapiens (Human), UniProt O75762)
valueReported: 8.14
//
smilesRecord: O=C(NCc1cc(F)cc(-c2cnc(C(F)(F)F)nc2)c1)[C@@H]1C2CC(C2)N1S(=O)(=O)c1ccc(F)cc1
systemName: human TRPA1 (Homo sapiens (Human), UniProt O75762)
valueReported: 8.05
//
smilesRecord: O=C(NCc1cc(-c2cnc(C(F)(F)F)nc2)ncc1C(F)F)[C@@H]1C2CC(C2)N1S(=O)(=O)c1ccc(F)c(F)c1
systemName: human TRPA1 (Homo sapiens (Human), UniProt O75762)
valueReported: 8.05

----------
Biological target: human TRPA1 (Homo sapiens (Human), UniProt O75762)
Assay: hTRPA1 CHO Ca2+ AUC EVO (IC50); FLIPR Tetra block of cinnamaldehyde induced calcium influx
Type: cell-based
Details: Table 3; CHO cells expressing TRPA1; 75 uM cinnamaldehyde (~EC80) as agonist
Threshold 3 nM: IC50 strictly smaller gives Yes, otherwise No.

smilesRecord: O=C(NCc1cc(-c2cnc(C(F)(F)F)nc2)ncc1OC(F)(F)F)[C@@H]1C2CC(C2)N1S(=O)(=O)c1ccc(F)cc1
className: Yes
--
smilesRecord: O=C(NCc1cc(-c2cnc(C(F)(F)F)nc2)ncc1C(F)(F)F)[C@@H]1C2CC(C2)N1S(=O)(=O)c1cc2cc(F)ccc2o1
className: Yes
--
smilesRecord: O=C(NCc1cc(-c2cnc(C(F)(F)F)nc2)ncc1Cl)[C@@H]1C2CC(C2)N1S(=O)(=O)c1ccc(F)c(F)c1
className: Yes
--
smilesRecord: N#Cc1cnc(-c2cnc(C(F)(F)F)nc2)cc1CNC(=O)[C@@H]1C2CC(C2)N1S(=O)(=O)c1ccc(F)cc1
className: No
--
smilesRecord: O=C(NCc1cc(-c2cnc(C(F)(F)F)nc2)ncc1Br)[C@@H]1C2CC(C2)N1S(=O)(=O)c1ccc(F)cc1
className: No
--
smilesRecord: O=C(NCc1cc(Cl)nc(-c2cnc(C(F)(F)F)nc2)c1)[C@@H]1C2CC(C2)N1S(=O)(=O)c1ccc(F)cc1
className: No

----------
Catalogue of pIC50 values
Target: human TRPA1 (Homo sapiens (Human))
Assay: hTRPA1 CHO Ca2+ AUC EVO (IC50); FLIPR Tetra block of cinnamaldehyde induced calcium influx
Type: cell-based
Conditions: Table 3; CHO cells expressing TRPA1; 75 uM cinnamaldehyde (~EC80) as agonist
pIC50: −log10 of the molar value.

smilesRecord: N#Cc1ccc(-c2cnc(C(F)(F)F)nc2)cc1CNC(=O)[C@@H]1C2CC(C2)N1S(=O)(=O)c1ccc(F)cc1
pIC50: 7.77
--
smilesRecord: O=C(NCc1cc(-c2cnc(C(F)(F)F)nc2)nc(C2CC2)c1)[C@@H]1C2CC(C2)N1S(=O)(=O)c1ccc(F)cc1
pIC50: 8.45
--
smilesRecord: O=C(NCc1cc(-c2cnc(C(F)(F)F)nc2)c(F)cn1)[C@@H]1C2CC(C2)N1S(=O)(=O)c1ccc(F)cc1
pIC50: 7.77
--
smilesRecord: O=C(NCc1cn(-c2cnc(C(F)(F)F)nc2)nc1C(F)(F)F)[C@@H]1C2CC(C2)N1S(=O)(=O)c1ccc(F)cc1
pIC50: 8.32
--
smilesRecord: O=C(NCc1cc(-c2cnc(C(F)(F)F)nc2)c(Cl)cn1)[C@@H]1C2CC(C2)N1S(=O)(=O)c1ccc(F)cc1
pIC50: 7.68
--
smilesRecord: O=C(NCc1cc(-c2cnc(C(F)(F)F)nc2)ncn1)[C@@H]1C2CC(C2)N1S(=O)(=O)c1ccc(F)cc1
pIC50: 7.37
--
smilesRecord: O=C(NCc1ccnc(-c2cnc(C(F)(F)F)nc2)c1)[C@@H]1C2CC(C2)N1S(=O)(=O)c1ccc(F)cc1
pIC50: 7.44
--
smilesRecord: O=C(NCc1cc(-c2cnc(C(F)(F)F)nc2)ccc1F)[C@@H]1C2CC(C2)N1S(=O)(=O)c1ccc(F)cc1
pIC50: 8.00
--
smilesRecord: O=C(NCc1cc(-c2cnc(C(F)(F)F)nc2)cc(C2CC2)n1)[C@@H]1C2CC(C2)N1S(=O)(=O)c1ccc(F)cc1
pIC50: 8.14
--
smilesRecord: COc1nn(-c2cnc(C(F)(F)F)nc2)cc1CNC(=O)[C@@H]1C2CC(C2)N1S(=O)(=O)c1ccc(F)cc1
pIC50: 7.72
--
smilesRecord: CC12CC(C1)[C@@H](C(=O)NCc1cc(-c3cnc(C(F)(F)F)nc3)c(F)cn1)N2S(=O)(=O)c1ccc(F)cc1
pIC50: 7.04
